- System: MS2 coat protein
- Experiment notes: apparent Kd, MS2 coat protein; higher = weaker binding; RNA-MaP array; FMN 200 µM where present
- Assay context: designed as: OFF switch for flavin mononucleotide; no ligand
Measured metric: apparent Kd (nM)
The reply should be a number in nM, with the unit left off.

Illustrative cases are given below, each with its answer.
{"columns": ["Sequence input", "Unit tag", "apparent Kd"],
 "data": [
  ["GCAUCGUCGACUGAUAAUGAGCCUAGAAGGCGGACAUGAGGAUCACCCAUGUCUGAUCCUCGGCCCGAGGAUAUAGGUUAAUGA", "nM", 12.1],
  ["GUACGUGGACAGAAGGUGACAUGAGGAUCACCCAUGUUAGUUGAGGUAUCAGCGAUCUGCGUGAUUGAGGAUAUGUCUGCGGGC", "nM", 11.9],
  ["AAAUUAAGAAGAGGAUAUUGACAUGAGGAUCACCCAUGUAUUUGGGAAUGUUUACUGAAUUCUUACGAGAAGGUUUACGAACUU", "nM", 191],
  ["GUCAGCUCGUGAGGAUAUACAUCACUGCUUCGGCAGUGUAUUAAAUCCACAUGAGGAUCACCCAUGUAGAAGGCACGAGCUGAU", "nM", 16.7],
  ["CUAAAUCAUGUAGGAUAUGCGUGGCGAAGCUAUGCAGAAGGACAUGAGGAUCACCCAUGUCAAAAUUUCUGCGUACAGACGGAA", "nM", 15.5],
  ["CAGCGUACCAGAGGAUAUGAUUGUGGGUAAAGAGCGCUUAGGUGGCUACAUGAGGAUCACCCAUGUCAGAAGGCUGGAGUUCAA", "nM", 279]
]}

# next sequence below
// query Quick check: apparent Kd of GAGCGAAAGCUCAAUGUCGAUAGCAGAAGGACAUGAAAACAUGAAAACACAUGAGGAUCACCCAUGUAGGAUAUGCUAUCGACU ?
// result 9.43

* * *

- Tested on: MS2 coat protein
- Experiment notes: apparent Kd, MS2 coat protein; higher = weaker binding; RNA-MaP array; FMN 200 µM where present
- Assay context: designed as: OFF switch for flavin mononucleotide; no ligand
Entries and their measured apparent Kd follow.
The reply should be a number in nM, with the unit left off.

Illustrative cases are given below, each with its answer.
{"columns": ["Sequence input", "Value"],
 "data": [
  ["GUAAACGAUCAGGAUAUAUCAAAUAAUAGCUUGAUAGAAGGGAUCACAUGAGGAUCACCCAUGUGAUCUUCUUU", 13.6],
  ["GUCAGCUCGUGAGGAUAUACAACACUGCUUCGGCAGUGUAUUAAGAUCACAUGAGGAUCACCCAUGUAGAAGGCACGAGCUGGU", 14.7]
]}

// query Quick check: apparent Kd of UAGCUUGACGCAGGAUAUCCAAGGCUGAAAUGAGGAGAAGGGCGCCAAACAUGAGGAUCACCCAUGUAUUAUGCAGGGUCCUCA ?
// result 362

// query Quick check: apparent Kd of CGAGUGUGAGGAUAUCCAGCCGGUGGGAUUACGUCGACGCUGGAGAAGGCACAUGAGGAUCACCCAUGUGGACA ?
// result 111

// query Quick check: apparent Kd of CAUCAGUGUUAAGGAUAUGGCAGCGGAAGCGCACCAGAAGGUAGCACAUGAGGAUCACCCAUGUGUUCUGGCUUGAGCGUGAUC ?
// result 36.5

// query Quick check: apparent Kd of CGCCUGGGAGGAUAUCCAAUAUAUGACAUGAGGAUCACCCAUGUUUCCACUCGUACCUCCGGAGAAGGCCCUGCGU ?
// result 22.2
